Tested on: Max* in heterodimer;ΔMax* in heterodimer V99G;R100E;A101S;L102E;E103S (;), P61244+P61244-3
Sequence (P61244 whole entry V99G/R100E/A101S/L102E/E103S, looked up, one chain of several): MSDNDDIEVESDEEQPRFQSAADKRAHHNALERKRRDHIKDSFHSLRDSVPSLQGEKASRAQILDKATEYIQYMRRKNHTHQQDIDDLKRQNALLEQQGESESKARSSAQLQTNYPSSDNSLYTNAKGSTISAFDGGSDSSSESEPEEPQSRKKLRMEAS
Assay: fluorescence anisotropy
Details: 37 C; 1:1 mixture; apparent 1/KBinding; 1/KDimer 460 ± 34 nM; internal fluorescein-dT (iFluorT) at position 4; FA: 15 nM dsDNA, 50 mM Tris, 50 mM KCl, pH 7.5, 37 C; EMSA: 250 nM DNA, 20 mM Tris-HCl, 75 mM KCl, 2.5 mM TCEP, 25 ug/mL BSA, 5% glycerol, pH 8.0, room temp …
MEASURED_PARAMETER: pKd
On this scale, pKd is minus log10 of a concentration expressed in M (mol/L).

Name the recorded pKd for GAGTAGGGATCCCTACTC (double strand) [Non-specific DNA, fluorescein-labeled] . 7.40
